TEST_TARGET: T1, human CD40 extracellular domain with C-terminal His-AviTag (human, UniProt P25942 21-193)
T1 construct: not shown: C-terminal His-AviTag
T1 sequence (P25942 21-193): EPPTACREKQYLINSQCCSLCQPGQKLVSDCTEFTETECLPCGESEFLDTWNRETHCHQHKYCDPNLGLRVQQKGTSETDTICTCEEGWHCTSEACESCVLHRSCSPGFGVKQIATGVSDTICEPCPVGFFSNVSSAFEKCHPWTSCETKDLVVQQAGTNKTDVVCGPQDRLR
EXPERIMENT_DESCRIPTION: SPR, antibody captured, CD40 ECD analyte;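 also: biacore SPR at 25 °C in PBS-T pH 7.4, CD40 ECD analyte from 300 nM in 1:3 series, 300 s association, up to 1200 s dissociation, double-referenced, Langmuir 1:1 fit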
Reported values of koff for individual entries
Report as a plain number; the unit s⁻¹ is understood.

For orientation, consider the following solved cases.
Return value of koff for input P1AE0997, humanized anti-CD40 antibody VH1c/VL1a, huIgG1_LALA_PG (antibody, V domains shown, huIgG1 with effector silent Fc (P329G, L234A, L235A)) VH: QVQLVQSGAEVKKPGASVKVSCKASGYSFTGYYIHWVRQAPGQSLEWMGRVIPNAGGTSYNQKFKGRVTLTVDKSISTAYMELSRLRSDDTAVYYCAREGIYWWGHGTTVTVSS VL: DIVMTQTPLSLSVTPGQPASISCRSSQSLVHSNGNTFLHWYLQKPGQSPQLLIYTVSNRFSGVPDRFSGSGSGTDFTLKISRVEAEDVGVYFCSQTTHVPWTFGGGTKVEIK , no commentary. 0.00603

Read off the recorded koff for P1AE0999, humanized anti-CD40 antibody VH1d/VL1a, huIgG1_LALA_PG (antibody, V domains shown, huIgG1 with effector silent Fc (P329G, L234A, L235A)) VH: QVQLVQSGAEVKKPGASVKVSCKASGYSFTGYYIHWVRQAPGQSLEWMGRVIPNAGGTSYNQKFKGRVTLSVDKSISTAYMELSRLRSDDTAVYYCAREGIYWWGQGTTVTVSS VL: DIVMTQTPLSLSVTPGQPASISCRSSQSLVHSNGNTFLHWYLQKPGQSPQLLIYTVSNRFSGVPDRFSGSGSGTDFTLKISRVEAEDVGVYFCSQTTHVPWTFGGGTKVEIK 0.00592

Proceed to the following item.
# return recorded koff for input P1AE0404, humanized anti-CD40 antibody VH2a/VL2b, huIgG1_LALA_PG (antibody, V domains shown, huIgG1 with effector silent Fc (P329G, L234A, L235A); also called VL2b/VH2a) VH: EVQLLESGGGLVQPGGSLRLSCAASGYSFTGYYIHWVRQAPGKGLEWVGRVIPNAGGTSYNQKFKGRFTISVDNSKNTAYLQMNSLRAEDTAVYYCAREGIYWWGQGTTVTVSS VL: DIQMTQSPSSLSASVGDRVTITCRSSQSLVHSNGNTFLHWYQQKPGQSPKLLIYTVSNRFSGVPSRFSGSGSGTDFTLTISSLQPEDFATYFCSQTTHVPWTFGGGTKVEIK 0.00693
